Where these numbers come from: ChEMBL document CHEMBL2169792

assay_overview: Cytotoxicity against human melanoma cells after 48 hrs by SRB assay
Format: functional
settings: Melanoma cell, read-out: LC50 (the source's name)
Each entry below carries its recorded CC50.
Write the value in µM as a bare number.

INSERT INTO results (compound, measurement_kind, assay_value) VALUES
  ('COc1ccc(-c2cc(-c3ccc(Cl)cc3)n(C3C(=O)Nc4ccc(Cl)cc43)n2)cc1 (configuration not stated)', 'CC50', 76.4),
  ('CN(C)c1ccc(-c2cc(-c3ccccc3)nn2C2C(=O)Nc3ccccc32)cc1 (configuration not stated)', 'CC50', 91.2),
  ('COc1ccc(C2CC(c3ccc4ccccc4c3)=NN2C2=NC(=O)/C(=C3\C(=O)Nc4ccc(Br)cc43)S2)cc1 (configuration not stated)', 'CC50', 3.52),
  ('COc1ccc(C2=NN(C3=NC(=O)/C(=C4\C(=O)Nc5ccc(Cl)cc54)S3)C(c3ccc(Cl)cc3)C2)cc1 (configuration not stated)', 'CC50', 1.21),
  ('COc1ccc(C2=NN(C3=NC(=O)/C(=C4\C(=O)Nc5ccccc54)S3)C(c3ccc(Cl)cc3)C2)cc1 (configuration not stated)', 'CC50', 100);

Request: Entry COc1ccc(C2=NN(C3=NC(=O)/C(=C4\C(=O)Nc5ccc(Cl)cc54)S3)C(c3ccc(OC)cc3)C2)cc1 (configuration not stated) needs its CC50 filled in; supply it.
Response: 33.9

Request: Entry CN(C)c1ccc(C2CC(c3ccccc3)=NN2C2=NC(=O)/C(=C3\C(=O)Nc4ccc(Cl)cc43)S2)cc1 (configuration not stated) needs its CC50 filled in; supply it.
Response: 2.16

Request: Entry COc1ccc(C2CC(c3ccccc3)=NN2C2=NC(=O)/C(=C3\C(=O)Nc4ccccc43)S2)cc1 (configuration not stated) needs its CC50 filled in; supply it.
Response: 38

Request: Entry COc1ccc(C2=NN(C3=NC(=O)/C(=C4\C(=O)Nc5ccccc54)S3)C(c3ccc(OC)cc3)C2)cc1 (configuration not stated) needs its CC50 filled in; supply it.
Response: 100

Request: Entry O=C1N=C(N2N=C(c3ccccc3)CC2c2ccccc2O)S/C1=C1/C(=O)Nc2ccccc21 (configuration not stated) needs its CC50 filled in; supply it.
Response: 60.8

Request: Entry O=C1Nc2ccc(Br)cc2C1n1nc(-c2ccc3ccccc3c2)cc1-c1ccc(Cl)cc1 (configuration not stated) needs its CC50 filled in; supply it.
Response: 56.8

Request: Entry COc1ccc(C2=NN(C3=NC(=O)/C(=C4\C(=O)Nc5ccc(Br)cc54)S3)C(c3ccc(Cl)cc3)C2)cc1 (configuration not stated) needs its CC50 filled in; supply it.
Response: 0.99
